molecular target: Cathepsin B (Bos taurus) (UniProt P07688); assay: Inhibition of bovine spleen cathepsin B using Z-Arg-Arg-MCA as substrate at 1 mM incubated for 10 mins
Active and inactive are the calls of the source. No cut-off for these calls is given here.
measurement-name: inhibition

Known results for compounds:
COc1cc(/C=C/C(=O)N[C@H](COC(=O)c2ccccc2)C(=O)NC2CCCCC2)cc(OC)c1OC: 70%
COc1cc(/C=C/C(=O)N[C@@H](COC(=O)c2ccccc2)C(=O)NC2CCCCC2)cc(OC)c1: inactive
O=C(/C=C/c1ccccc1)N[C@@H](COC(=O)CCc1ccccc1)C(=O)NC1CCCCC1: 82%
COc1ccc(/C=C/C(=O)N[C@@H](COC(=O)c2ccccc2)C(=O)NC2CCCCC2)cc1OC: 88%

For the compound shown here, O=C(/C=C/c1ccccc1)N[C@H](COC(=O)c1ccccc1)C(=O)NC1CCCCC1 , give the reported inhibition. inactive
